# method: Cytotoxicity against mouse RAW264.7 cells assessed as cell survival at 100 uM after 24 hrs incubation by trypan blue exclusion method
# Format: cell-based
# assay.context: read-out: Survival
The compounds listed here are annotated with their viability at 24 h, 100 µM.
Field: numeric (%). Do not append units.

Take a look at these entries with their results.
The compound listed as CCCCCCCCCCCCCCCCOP(=O)([O-])OCC[N+](C)(C)C shows viability at 24 h, 100 µM equal to 85

The compound listed as Cn1c(=O)cc(O)c2ccccc21 shows viability at 24 h, 100 µM equal to 70

The compound listed as Cn1c(=O)c([N+](=O)[O-])c(O)c2ccccc21 shows viability at 24 h, 100 µM equal to 80

The compound listed as N=C(N)c1ccc(OCCCCCOc2ccc(C(=N)N)cc2)cc1 shows viability at 24 h, 100 µM equal to 75

The compound listed as O=[N+]([O-])c1c(O)nc2ccccc2c1O shows viability at 24 h, 100 µM equal to 90

Alright, here's another compound for you.
The compound listed as Cc1ccc(S(=O)(=O)Oc2c([N+](=O)[O-])c(=O)n(C)c3ccccc23)cc1 shows viability at 24 h, 100 µM equal to 100

---

# Tested on: Leishmania donovani
# method: Antikinetoplastid activity against Leishmania donovani MHOM/ET/67/HU3 promastigotes after 3 days incubation at 27 degC under dark condition and 5% CO2 atmosphere by MTT assay
# Format: functional, organism-based
# assay.context: MHOM/ET/67/HU3, 72 h
property.measured: pIC50
Schema: pIC50 number; meaning minus log10 of the concentration expressed in molar units.

The compound listed as CCCC(=O)Nc1c(O)c2ccccc2n(C)c1=O shows pIC50 equal to 4.96

The compound listed as Cc1ccc(S(=O)(=O)Oc2c(NC(=O)c3ccc4c(c3)CCC(C)(C)O4)c(=O)n(C)c3ccccc23)cc1 shows pIC50 equal to 4.52

The compound listed as Cn1c(=O)c(NC(=O)c2ccc3c(c2)C=CC(C)(C)O3)c(O)c2ccccc21 shows pIC50 equal to 4.28

---
The compound listed as COc1cc(C(=O)Nc2c(OS(=O)(=O)c3ccc(C)cc3)c3ccccc3n(C)c2=O)cc(OC)c1OC shows pIC50 equal to 4.39

The compound listed as Cc1ccc(S(=O)(=O)Oc2c(NC(=O)c3ccc4c(c3)C=CC(C)(C)O4)c(=O)n(C)c3ccccc23)cc1 shows pIC50 equal to 4.52

The compound listed as Cn1c(=O)c(NC(=O)CCCCCCCCCCOn2nnc3ccccc32)c(O)c2ccccc21 shows pIC50 equal to 4.47

---

# System: Leishmania donovani
# method: Antikinetoplastid activity against Leishmania donovani MHOM/ET/67/HU3 promastigotes after 3 days incubation at 27 degC under dark condition and 5% CO2 atmosphere by MTT assay
# Type: functional, organism-based
# assay.context: MHOM/ET/67/HU3, 72 h
pIC50: −log10 of the molar value.
Binary classification by pIC50, with 5 as an inclusive lower bound for 1 (yes); all other cases are 0 (no).

Check if pIC50 >= 5 (inclusive). Item: Cc1ccc(S(=O)(=O)Oc2c(N)c(=O)n(C)c3ccccc23)cc1 0 (no)

Check if pIC50 >= 5 (inclusive). Item: Cn1c(=O)c([N+](=O)[O-])c(O)c2ccccc21 0 (no)

Check if pIC50 >= 5 (inclusive). Item: Cc1ccc(S(=O)(=O)Oc2c(NC(=O)c3cc4ccccc4[nH]3)c(=O)n(C)c3ccccc23)cc1 0 (no)

Check if pIC50 >= 5 (inclusive). Item: COc1ccc(C(=O)Nc2cc3cc(OC)ccc3n(C)c2=O)cc1 0 (no)

Check if pIC50 >= 5 (inclusive). Item: N=C(N)c1ccc(OCCCCCOc2ccc(C(=N)N)cc2)cc1 1 (yes)

Check if pIC50 >= 5 (inclusive). Item: COc1cc(C(=O)Nc2c(O)c3ccccc3[nH]c2=O)cc(OC)c1OC 0 (no)

Check if pIC50 >= 5 (inclusive). Item: COc1cc(C(=O)Nc2c(O)c3ccccc3n(C)c2=O)cc(OC)c1OC 1 (yes)

Check if pIC50 >= 5 (inclusive). Item: Cn1c(=O)c(NC(=O)c2ccc3c(c2)CCC(C)(C)O3)c(O)c2ccccc21 0 (no)

---
Check if pIC50 >= 5 (inclusive). Item: O=[N+]([O-])c1c(O)nc2ccccc2c1O 0 (no)

Check if pIC50 >= 5 (inclusive). Item: Cc1ccc(S(=O)(=O)Oc2c([N+](=O)[O-])c(=O)n(C)c3ccccc23)cc1 1 (yes)

Check if pIC50 >= 5 (inclusive). Item: COc1ccc(C(=O)Nc2c(OS(=O)(=O)c3ccc(C)cc3)c3ccccc3n(C)c2=O)cc1 0 (no)

Check if pIC50 >= 5 (inclusive). Item: COc1ccc(C(=O)Nc2cc3ccccc3n(C)c2=O)cc1 0 (no)
